Bliss excess reference
- Test system: SK-N-AS (Neuroblastoma);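 note: after 72 h of two-drug dosing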
- assay_remarks: Bliss excess, mean over the matrix (fraction); higher = more synergy
recorded_metric: Bliss excess

COc1cc2ncnc(Nc3ccc(F)c(Cl)c3)c2cc1OCCCN1CCOCC1 [Gefitinib] + CC(C)n1c(=O)n(C)c2cnc3cc(F)c(-c4ccc(OCCCN5CCCCC5)nc4)cc3c21 [AZD1390] (first compound max 10 µM, 7x7, partner max 0.3 µM)	-0.0588
COc1cccc(OCCCN)c1-c1cc(Nc2cnc(C#N)cn2)n[nH]1 [Prexasertib] + CN(C)CCCOc1ccc(-c2ccc3ncc4c(c3c2)n(C2CCOCC2)c(=O)n4C)cn1 [AZD0156] (first compound max 1 µM, 7x7, partner max 1 µM)	-0.0026
COc1cccc(OCCCN)c1-c1cc(Nc2cnc(C#N)cn2)n[nH]1 [Prexasertib] + O=C(c1cc(Cc2n[nH]c(=O)c3ccccc23)ccc1F)N1CCN(C(=O)C2CC2)CC1 [Olaparib] (first compound max 1 µM, 7x7, partner max 10 µM)	-0.0412
Cc1c2c(nn1C)CSCc1cc(n(C)n1)CSc1cc(c3ccccc3c1)OCCCc1c(C(=O)O)n(C)c3c-2c(Cl)ccc13 [AZD5991] + Cc1cc2ncnn2cc1Nc1ncc2c(n1)n(C1CCOCC1)c(=O)n2C [AZD7648] (first compound max 1 µM, 7x7, partner max 10 µM)	-0.0554
CN(CCO)CC[C@H](CSc1ccccc1)Nc1ccc(S(=O)(=O)NC(=O)c2ccc(N3CCC([C@@H](O)c4ccccc4-c4ccc(Cl)cc4)CC3)cc2)cc1S(=O)(=O)C(F)(F)F [AZD4320] + CS(=O)(=O)CCNCc1ccc(-c2ccc3ncnc(Nc4ccc(OCc5cccc(F)c5)c(Cl)c4)c3c2)o1 [Lapatinib] (first compound max 1 µM, 7x7, partner max 10 µM)	-0.0397
Cc1c2c(nn1C)CSCc1cc(n(C)n1)CSc1cc(c3ccccc3c1)OCCCc1c(C(=O)O)n(C)c3c-2c(Cl)ccc13 [AZD5991] + C=CCn1c(=O)c2cnc(Nc3ccc(N4CCN(C)CC4)cc3)nc2n1-c1cccc(C(C)(C)O)n1 [AZD1775] (first compound max 1 µM, partner max 1 µM)	-0.066
Cc1c2c(nn1C)CSCc1cc(n(C)n1)CSc1cc(c3ccccc3c1)OCCCc1c(C(=O)O)n(C)c3c-2c(Cl)ccc13 [AZD5991] + C[C@@H](Nc1cc(F)cc(F)c1)c1cc(C(=O)N(C)C)cc2c(=O)cc(N3CCOCC3)oc12 [AZD8186] (first compound max 1 µM, 7x7, partner max 3 µM)	-0.0122
